Experimental system: Homeobox protein Hox-A13 (Mus musculus)
Assay name: inhibitors of HoxA13-DNA binding, primary screen, biochemical, fluorescence polarization, labeled oligonucleotide (AID 1185)
Condition info: 15 min, higher = more signal, called active from +8 up or from −8 down
# cutoff -2 applies to z-score; >= gives Criterion met, < gives Criterion not met

Below, 6 compounds whose answers are already recorded.
C=CCNC(=O)[C@H]1[C@@H]2C(=O)O[C@@H](c3ccccc3)[C@@H](c3ccccc3)N2[C@@H](c2ccc(O)cc2)[C@]12C(=O)N(C(=O)OCCOC)c1ccc(C#CC3=CCCCC3)cc12: Criterion met
COc1ccc(O[C@H]2C=C[C@@H](c3ccccc3)O[C@@H]2COC(=O)CCC(C)=NOCC[C@@H]2C=C[C@H](OC(C)=O)[C@@H](COC(C)=O)O2)cc1: Criterion not met
CC(=O)OC[C@H]1O[C@H](CCON=C(C)CCN2CCc3nc(-c4ccccc4)c(-c4ccccc4)cc3C2)C=C[C@@H]1OC(C)=O: Criterion not met
CC(C)=CCCC(C)=CCON=C1C[C@@H](O)[C@@H](O)[C@@H]2[C@@H]3C(=O)N(C[C@@H]4CCCO4)C(=O)[C@@H]3CC[C@@H]12: Criterion met
C=CC[C@@H]1C=C[C@H](ON=C2c3cc(OC)ccc3O[C@H](c3cccc(OC)c3)[C@H]2O)[C@@H](CO)O1: Criterion not met
O=C1[C@H]2[C@H]3[C@H](O)[C@H](O)CC(=NO[C@@H]4O[C@H](CO)[C@@H](O)[C@H](O)[C@H]4O)[C@H]3CC[C@H]2C(=O)N1Cc1ccccc1: Criterion met

Reported z-score at or above -2? CCOC(=O)[C@H](Cc1ccccc1)NC(=O)CCC1CC(OC(=O)NCCc2ccc(F)cc2)CC2(CCCC(COC(=O)NCC(c3ccccc3)c3ccccc3)O2)O1 (some centres undefined)
Criterion not met

Reported z-score reaches at least -2 for CO[C@@H]1COC(=O)CC=C[C@@H](C)[C@@H]2C=C[C@H](O)[C@@H](COC(=O)[C@H](C)NC(=O)CC=C[C@H]1C)O2 ?
Criterion not met

Is z-score at least -2? Consider CCOC(=O)NN=C1C[C@@H](O)[C@@H](O)[C@@H]2[C@@H]3C(=O)N(C4CCCCC4)C(=O)[C@@H]3CC[C@@H]12
Criterion met

* * *

Assay name: PSAC antagonists in infected red cells, primary screen, cell-based, P. falciparum Indochina, OD700, 2 h (AID 1155);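 also: lysis reports solute entry through the parasite surface anion channel PSAC; channel blockers reduce lysis of infected cells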
Condition info: P. falciparum Indochina infected erythrocytes, osmotic lysis OD700; higher = more signal, called active from +8 up or from −8 down
Kindly state z-score for each of the entries shown.
Give bare numbers.

C=CCOC(=O)[C@H]1[C@@H]2C(=O)O[C@@H](c3ccccc3)[C@@H](c3ccccc3)N2[C@@H](c2ccc(OCCOC(=O)[C@H]3C[C@H]4C(=O)N5CCC[C@H]5C(=O)N4[C@H]3c3cccc(OCCO)c3)cc2)[C@]12C(=O)Nc1ccc(I)cc12: 0.641

Provide z-score values for the following items, in order.
1. O=C1[C@H]2[C@H]3[C@H](O)[C@H](O)CC(=NO[C@@H]4O[C@H](CO)[C@@H](O)[C@H](O)[C@H]4O)[C@H]3CC[C@H]2C(=O)N1Cc1ccc2c(c1)OCO2
2. CCOC(=O)[C@H](Cc1ccccc1)NC(=O)CCC1CC(OC(=O)NCCc2ccc(F)cc2)CC2(CCCC(COC(=O)NCC(c3ccccc3)c3ccccc3)O2)O1 (some centres undefined)
3. O=C1C[C@]2(c3ccc([N+](=O)[O-])cc3)C(=O)N(CCN3CCOCC3)c3cc(CO)ccc3[C@H]2N1CC12CC3CC(CC(C3)C1)C2
4. C#CCCCON=C1C[C@@H](O)[C@@H](O)[C@@H]2[C@@H]3C(=O)N(CCC(=O)OCC)C(=O)[C@@H]3CC[C@@H]12
5. COC(=O)[C@H](C)NC(=O)[C@@H](C)CO
6. CO[C@@H]1COC(=O)[C@H](C)NC(=O)[C@@H](C)COC(=O)CCC[C@H]1C
7. CCOC(=O)CCN1C(=O)[C@H]2[C@H]3[C@H](O)[C@H](O)CC(=O)[C@H]3CC[C@H]2C1=O
8. O=C1C[C@@H](O)[C@@H](O)[C@@H]2[C@@H]3C(=O)N(c4cccc(Oc5ccccc5)c4)C(=O)[C@@H]3CC[C@@H]12

[2.09, 4.68, -0.103, 1.47, 0.451, 0.891, -0.426, -0.329]

Hi! Can you tell me z-score for each of these compounds?
1. CN(C)CCCNC(=O)[C@@H]1c2ccccc2C(=O)N(Cc2cc(F)cc(C(F)(F)F)c2)[C@H]1c1ccc(CO)cc1
2. C=C(/C(=C/C[C@@H](OC(=O)c1ccncc1)c1ccc(OCCO)cc1)c1cnc2ccccc2c1)C(C)C
3. CCOC(=O)NN=C1C[C@@H](O)[C@@H](O)[C@@H]2[C@@H]3C(=O)N(CC)C(=O)[C@@H]3CC[C@@H]12
4. O=C1O[C@@H](c2ccccc2)[C@@H](c2ccccc2)N2[C@@H](c3ccc(OCCO)cc3)[C@]3(C(=O)Nc4ccc(C#CCCO)cc43)[C@@H](C(=O)N3CCCCCCC3)[C@H]12
5. CCOC(=O)CCN1C(=O)[C@H]2[C@H]3[C@H](O)[C@H](O)CC(=NNC(=O)OCc4ccc(OC)cc4)[C@@H]3CC[C@H]2C1=O

1. 0.382
2. 4.25
3. -0.246
4. 1.27
5. 1.07
